Hello, the source for this data is paper PMC5214534, in case you need it.

Catalogue of Disruption of preformed hIAPP amyloid (ThT assay) readings, one per entry.
Target Or Test System: preformed fibrils of hIAPP (Homo sapiens)
Construct: 3.1 mg of hIAPP(1-37) was dissolved in 50 μL of HFIP
Sequence (P10997 34-70): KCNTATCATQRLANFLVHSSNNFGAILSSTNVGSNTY
Assay Text: Time dependent Thioflavin T assay, disruption of preformed fibrils of hIAPP
Assay type: biochemical
Test Context: 10-fold molar excess added at 48 h to hIAPP 40 μM preincubated in PBS pH 7.4, 37 °C; total 7 (2 + 5) days; average of 3 replica
Where a SMILES comes first, the peptide text is derived from it. [ ]: non-standard residue; d: D form. 3Abz = Nc1cccc(C(=O)O)c1; 2Abz = Nc1ccccc1C(=O)O; Aib = CC(C)(N)C(=O)O

{"columns": ["Compound", "Obs Value"],
 "data": [
  ["CC(C)C[C@H](NC(=O)c1cccc(NC(=O)[C@H](C)NC(=O)CNC(=O)[C@H](Cc2ccccc2)NC(=O)[C@@H](N)CC(N)=O)c1)C(N)=O [Peptide 4] (H-NFGA[3Abz]L-NH2)", "~ 33%"]
]}

Given the compound CC(C)C[C@H](NC(=O)c1cccc(NC(=O)[C@H](C)NC(=O)c2cccc(NC(=O)[C@H](Cc3ccccc3)NC(=O)[C@@H](N)CC(N)=O)c2)c1)C(N)=O [Peptide 8] (H-NF[3Abz]A[3Abz]L-NH2) , what is its reported Disruption of preformed hIAPP amyloid (ThT assay)?
~ 44%

Name the recorded Disruption of preformed hIAPP amyloid (ThT assay) for CC(C)C[C@H](NC(=O)C(C)(C)NC(=O)[C@H](C)NC(=O)CNC(=O)[C@H](Cc1ccccc1)NC(=O)[C@@H](N)CC(N)=O)C(N)=O [Peptide 2] (H-NFGA[Aib]L-NH2) .
~ 23%

Disruption of preformed hIAPP amyloid (ThT assay) for CC(C)C[C@H](NC(=O)c1ccccc1NC(=O)[C@H](C)NC(=O)c1ccccc1NC(=O)[C@H](Cc1ccccc1)NC(=O)[C@@H](N)CC(N)=O)C(N)=O [Peptide 7] (H-NF[2Abz]A[2Abz]L-NH2) ?
~ 57%

Look up Disruption of preformed hIAPP amyloid (ThT assay) for this compound: CC(C)C[C@H](NC(=O)c1ccccc1NC(=O)[C@H](C)NC(=O)CNC(=O)[C@H](Cc1ccccc1)NC(=O)[C@@H](N)CC(N)=O)C(N)=O [Peptide 3] (H-NFGA[2Abz]L-NH2)
~ 40%

For CC(C)C[C@H](NC(=O)C(C)(C)NC(=O)[C@H](C)NC(=O)C(C)(C)NC(=O)[C@H](Cc1ccccc1)NC(=O)[C@@H](N)CC(N)=O)C(N)=O [Peptide 6] (H-NF[Aib]A[Aib]L-NH2) , what is its reported Disruption of preformed hIAPP amyloid (ThT assay)?
~ 40%

###

Target Or Test System: hIAPP1-37 (Homo sapiens, UniProt P10997)
Construct: 3.1 mg of hIAPP(1-37) was dissolved in 50 μL of HFIP
Sequence (P10997 34-70): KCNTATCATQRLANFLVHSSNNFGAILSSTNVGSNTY
Assay Text: Time dependent Thioflavin T assay, inhibition of amyloid formation of hIAPP
Type: biochemical
Test Context: 10-fold molar excess of peptidomimetic co-incubated with hIAPP 40 μM, PBS pH 7.4, 37 °C, up to 7 days; average of 3 replica
Where a SMILES comes first, the peptide text is derived from it. [ ]: non-standard residue; d: D form. 2Abz = Nc1ccccc1C(=O)O; Aib = CC(C)(N)C(=O)O
# Inhibition of hIAPP amyloid formation (suppression of ThT fluorescence intensity) values compiled below

Value lookup for Inhibition of hIAPP amyloid formation (suppression of ThT fluorescence intensity); key = CC(C)C[C@H](NC(=O)c1ccccc1NC(=O)[C@H](C)NC(=O)c1ccccc1NC(=O)[C@H](Cc1ccccc1)NC(=O)[C@@H](N)CC(N)=O)C(N)=O [Peptide 7] (H-NF[2Abz]A[2Abz]L-NH2)
~ 70%

For the compound CC(C)C[C@H](NC(=O)C(C)(C)NC(=O)[C@H](C)NC(=O)C(C)(C)NC(=O)[C@H](Cc1ccccc1)NC(=O)[C@@H](N)CC(N)=O)C(N)=O [Peptide 6] (H-NF[Aib]A[Aib]L-NH2) , what Inhibition of hIAPP amyloid formation (suppression of ThT fluorescence intensity) is on record?
~ 52%

Data request, read-out Inhibition of hIAPP amyloid formation (suppression of ThT fluorescence intensity), for CC(C)C[C@H](NC(=O)c1ccccc1NC(=O)[C@H](C)NC(=O)CNC(=O)[C@H](Cc1ccccc1)NC(=O)[C@@H](N)CC(N)=O)C(N)=O [Peptide 3] (H-NFGA[2Abz]L-NH2)
~ 55%

###

Target Or Test System: hIAPP1-37 (Homo sapiens, UniProt P10997)
Construct: 3.1 mg of hIAPP(1-37) was dissolved in 50 μL of HFIP
Sequence (P10997 34-70): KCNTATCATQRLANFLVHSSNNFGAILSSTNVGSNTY
Assay Text: Time dependent Thioflavin T assay, inhibition of amyloid formation of hIAPP
Format: biochemical
Test Context: 10-fold molar excess of peptidomimetic co-incubated with hIAPP 40 μM, PBS pH 7.4, 37 °C, up to 7 days; average of 3 replica
Where a SMILES comes first, the peptide text is derived from it. [ ]: non-standard residue; d: D form. 3Abz = Nc1cccc(C(=O)O)c1; Aib = CC(C)(N)C(=O)O
Property Label: Inhibition of hIAPP amyloid formation (suppression of ThT fluorescence intensity)

Example entries and their recorded answers appear below.
{"columns": ["Compound", "Target Or Test System", "Obs Value"],
 "data": [
  ["CC(C)C[C@H](NC(=O)c1cccc(NC(=O)[C@H](C)NC(=O)c2cccc(NC(=O)[C@H](Cc3ccccc3)NC(=O)[C@@H](N)CC(N)=O)c2)c1)C(N)=O [Peptide 8] (H-NF[3Abz]A[3Abz]L-NH2)", "hIAPP1-37 (Homo sapiens, UniProt P10997)", "~ 65%"],
  ["CC(C)C[C@H](NC(=O)c1cccc(NC(=O)[C@H](C)NC(=O)CNC(=O)[C@H](Cc2ccccc2)NC(=O)[C@@H](N)CC(N)=O)c1)C(N)=O [Peptide 4] (H-NFGA[3Abz]L-NH2)", "hIAPP1-37 (Homo sapiens, UniProt P10997)", "~ 50%"]
]}

Let us examine a further case.
// Inhibition of hIAPP amyloid formation (suppression of ThT fluorescence intensity) lookup, key: CC(C)C[C@H](NC(=O)C(C)(C)NC(=O)[C@H](C)NC(=O)CNC(=O)[C@H](Cc1ccccc1)NC(=O)[C@@H](N)CC(N)=O)C(N)=O [Peptide 2] (H-NFGA[Aib]L-NH2)
~ 40%
